B1: HEEH_KT_rd6_3546 (parent)
chain: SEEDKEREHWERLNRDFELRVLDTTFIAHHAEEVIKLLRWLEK

Variants of: B1
Assay: folding stability dG (cDNA display proteolysis); higher = more stable
Details: PBS, room temperature
Outcome measure: folding stability dG

- Mutation: "H30Q"
  Result: "1.06 kcal/mol"
- Mutation: "E32P"
  Result: "1.25 kcal/mol"
- Mutation: "S1N"
  Result: "1.3 kcal/mol"
- Mutation: "E32L"
  Result: "1.92 kcal/mol"
- Mutation: "E11V"
  Result: "1.52 kcal/mol"
- Mutation: "W40M"
  Result: "1.11 kcal/mol"
- Mutation: "E42T"
  Result: "2.1 kcal/mol"
- Mutation: "E42Y"
  Result: "2.57 kcal/mol"
- Mutation: "L13M"
  Result: "1.36 kcal/mol"
- Mutation: "A28H"
  Result: "0.802 kcal/mol"
- Mutation: "L41C"
  Result: "1.83 kcal/mol"
- Mutation: "N14P"
  Result: "1.8 kcal/mol"
- Mutation: "L38E"
  Result: "-0.1 kcal/mol"
- Mutation: "S1G"
  Result: "1.51 kcal/mol"
- Mutation: "E18K"
  Result: "1.62 kcal/mol"
- Mutation: "D23M"
  Result: "2.76 kcal/mol"
- Mutation: "R39A"
  Result: "0.866 kcal/mol"
- Mutation: "W40Q"
  Result: "0.781 kcal/mol"
- Mutation: "T25P"
  Result: "0.992 kcal/mol"
- Mutation: "A28D"
  Result: "0.777 kcal/mol"
- Mutation: "E11K"
  Result: "1.69 kcal/mol"
- Mutation: "F26S"
  Result: "0.703 kcal/mol"

All figures here come from the MegaScale stability set (Tsuboyama et al. 2023).
